TEST: ABTS antioxidant assay
PARTICULARS: IC50 compared to IC50 of trolox
ENDPOINT: Trolox Equivalents (μmol/μmol)
Respond numerically; units are μmol/μmol and should not be typed.

Looking for the measured Trolox Equivalents (μmol/μmol) of O=c1c(-c2ccc(O)cc2)coc2cc(O)cc(O)c12 [Genistein, reference compound] , can you help?
3.0

Can you check CC(C)(C)[Si](C)(C)Oc1ccc2c(c1)OC1c3ccc(O)cc3OCC21O (single isomer, unassigned; (-)) [4 (−), (−) 9-(t-Butyldimethylsilyloxy)-glycinol] next?
1.9

Can you check CC(C)(C)[Si](C)(C)Oc1ccc(C2(O)COc3cc(OCc4ccccc4)ccc3C2O)c(OCc2ccccc2)c1 (racemic) [2 (+/−)] next?
0.008
